Cited source for all entries: the supplement of paper PMC8149375

System: CAKI-1
TEST_PROTOCOL: GI50, drug alone; higher = less potent
RECORDED_CONDITIONS: treatment: drug alone; 5 days
EXPERIMENTAL_READOUT: GI50, drug alone (µM)
Form entry: value (µM) — number only.

For the compound Nc1ccc(-c2ccc3ncc4ccc(=O)n(-c5cccc(C(F)(F)F)c5)c4c3c2)cn1 , report GI50, drug alone.
0.0322

For the compound Cc1cc(Nc2cc(CN3CCOCC3)c3nc(C)c(Cc4ccc(Cl)cc4F)n3n2)[nH]n1 , report GI50, drug alone.
2.28

For the compound COc1cc(Nc2ncc(F)c(Nc3ccc4c(n3)NC(=O)C(C)(C)O4)n2)cc(OC)c1OC.O=S(=O)(O)c1ccccc1 , report GI50, drug alone.
1.33

* * *

System: CAKI-1
TEST_PROTOCOL: AUC of dose-response viability curve, drug + dasatinib, normalised to DMSO (arbitrary (AUC of normalised viability)); higher = less growth inhibition
RECORDED_CONDITIONS: treatment: drug + dasatinib (fixed dose, not stated); 5 days
With a cut-off of 2, any AUC of dose-response viability curve strictly below it is called class 1; any AUC of dose-response viability curve meeting it or above is called class 0.

Does CNC(=O)c1cc(Oc2ccc(NC(=O)Nc3ccc(Cl)c(C(F)(F)F)c3)c(F)c2)ccn1 [Regorafenib (BAY 73-4506)] + Cc1nc(Nc2ncc(C(=O)Nc3c(C)cccc3Cl)s2)cc(N2CCN(CCO)CC2)n1 have AUC of dose-response viability curve strictly under 2?
class 0

Does CCN(CC)CCNC(=O)c1c(C)[nH]c(/C=C2\C(=O)Nc3ccc(F)cc32)c1C.O=C(O)C[C@H](O)C(=O)O [Sunitinib Malate (Sutent)] + Cc1nc(Nc2ncc(C(=O)Nc3c(C)cccc3Cl)s2)cc(N2CCN(CCO)CC2)n1 have AUC of dose-response viability curve strictly under 2?
class 1

Does O=C1NC(=O)/C(=C/c2ccc(-c3ccc(F)cc3O)o2)S1 + Cc1nc(Nc2ncc(C(=O)Nc3c(C)cccc3Cl)s2)cc(N2CCN(CCO)CC2)n1 have AUC of dose-response viability curve strictly under 2?
class 0

Does Cc1c(NC(=O)OC[C@@H]2COCCN2)cn2ncnc(Nc3ccc4c(cnn4Cc4cccc(F)c4)c3)c12.Cl + Cc1nc(Nc2ncc(C(=O)Nc3c(C)cccc3Cl)s2)cc(N2CCN(CCO)CC2)n1 have AUC of dose-response viability curve strictly under 2?
class 0

Does FC(F)c1nc2ccccc2n1-c1nc(N2CCOCC2)nc(N2CCOCC2)n1 [ZSTK474] + Cc1nc(Nc2ncc(C(=O)Nc3c(C)cccc3Cl)s2)cc(N2CCN(CCO)CC2)n1 have AUC of dose-response viability curve strictly under 2?
class 1

Does CN(C[C@@H]1COCCO1)S(=O)(=O)Nc1ccc2ccc3ncc(-c4cnn(C)c4)cc3c(=O)c2c1 [MK-2461] + Cc1nc(Nc2ncc(C(=O)Nc3c(C)cccc3Cl)s2)cc(N2CCN(CCO)CC2)n1 have AUC of dose-response viability curve strictly under 2?
class 1

Does CCN1CCN(C(=O)Cc2ccc(Nc3ncc(F)c(Nc4ccc(C(=O)Nc5ccccc5Cl)cc4)n3)cc2)CC1 [Aurora A Inhibitor I] + Cc1nc(Nc2ncc(C(=O)Nc3c(C)cccc3Cl)s2)cc(N2CCN(CCO)CC2)n1 have AUC of dose-response viability curve strictly under 2?
class 1

Does CO[C@H]1C[C@H]2CC[C@@H](C)[C@@](O)(O2)C(=O)C(=O)N2CCCC[C@H]2C(=O)O[C@H]([C@H](C)C[C@@H]2CC[C@H](OP(C)(C)=O)[C@H](OC)C2)CC(=O)[C@H](C)/C=C(\C)[C@@H](O)[C@@H](OC)C(=O)[C@H](C)C[C@H](C)/C=C/C=C/C=C/1C (stereo in doubt) [Deforolimus (Ridaforolimus)] + Cc1nc(Nc2ncc(C(=O)Nc3c(C)cccc3Cl)s2)cc(N2CCN(CCO)CC2)n1 have AUC of dose-response viability curve strictly under 2?
class 1

Does Cc1ccccc1-n1c(Cn2cnc3c(N)ncnc32)nc2cccc(C)c2c1=O + Cc1nc(Nc2ncc(C(=O)Nc3c(C)cccc3Cl)s2)cc(N2CCN(CCO)CC2)n1 have AUC of dose-response viability curve strictly under 2?
class 0

Does C[C@H](NC(=O)/C(C#N)=C/c1cccc(Br)n1)c1ccccc1 [WP1066] + Cc1nc(Nc2ncc(C(=O)Nc3c(C)cccc3Cl)s2)cc(N2CCN(CCO)CC2)n1 have AUC of dose-response viability curve strictly under 2?
class 0

Does CO[C@@H](C(=O)N1Cc2[nH]nc(NC(=O)c3ccc(N4CCN(C)CC4)cc3)c2C1)c1ccccc1 + Cc1nc(Nc2ncc(C(=O)Nc3c(C)cccc3Cl)s2)cc(N2CCN(CCO)CC2)n1 have AUC of dose-response viability curve strictly under 2?
class 1

Does C[C@@H]1CCN(C(=O)CC#N)C[C@@H]1N(C)c1ncnc2[nH]ccc12 + Cc1nc(Nc2ncc(C(=O)Nc3c(C)cccc3Cl)s2)cc(N2CCN(CCO)CC2)n1 have AUC of dose-response viability curve strictly under 2?
class 0

Does Nc1ccc(C(=O)Nc2cccc(-c3nc(N4CCOCC4)c4oc5ncccc5c4n3)c2)cn1 + Cc1nc(Nc2ncc(C(=O)Nc3c(C)cccc3Cl)s2)cc(N2CCN(CCO)CC2)n1 have AUC of dose-response viability curve strictly under 2?
class 1

Does COC(=O)Nc1ccc(-c2nc(N3CCOCC3)c3cnn(C4CCN(Cc5cccnc5)CC4)c3n2)cc1 [WYE-687] + Cc1nc(Nc2ncc(C(=O)Nc3c(C)cccc3Cl)s2)cc(N2CCN(CCO)CC2)n1 have AUC of dose-response viability curve strictly under 2?
class 1

Does O=C1CCC(N2C(=O)c3ccccc3C2=O)C(=O)N1 (configuration not stated) [Thalidomide] + Cc1nc(Nc2ncc(C(=O)Nc3c(C)cccc3Cl)s2)cc(N2CCN(CCO)CC2)n1 have AUC of dose-response viability curve strictly under 2?
class 0

Does O=C1C(=O)N(Cc2ccc(Cl)c(Cl)c2)c2ccccc21 [Apoptosis Activator 2] + Cc1nc(Nc2ncc(C(=O)Nc3c(C)cccc3Cl)s2)cc(N2CCN(CCO)CC2)n1 have AUC of dose-response viability curve strictly under 2?
class 0

* * *

Test system: TK-10
TEST_PROTOCOL: AUC of dose-response viability curve, drug + dasatinib, normalised to DMSO (arbitrary (AUC of normalised viability)); higher = less growth inhibition
RECORDED_CONDITIONS: treatment: drug + dasatinib (fixed dose, not stated); 5 days
With a cut-off of 2, any AUC of dose-response viability curve strictly below it is called yes; any AUC of dose-response viability curve meeting it or above is called no.

Does COc1cc2c(Oc3ccc4[nH]c(C)cc4c3F)ncnc2cc1OCCCN1CCCC1 [Cediranib (AZD2171)] + Cc1nc(Nc2ncc(C(=O)Nc3c(C)cccc3Cl)s2)cc(N2CCN(CCO)CC2)n1 have AUC of dose-response viability curve strictly under 2?
no

Does Nc1ccc(C(=O)Nc2cccc(-c3nc(N4CCOCC4)c4oc5ncccc5c4n3)c2)cn1 + Cc1nc(Nc2ncc(C(=O)Nc3c(C)cccc3Cl)s2)cc(N2CCN(CCO)CC2)n1 have AUC of dose-response viability curve strictly under 2?
no

Does Cn1c(=O)c(F)c(Nc2ccc(I)cc2F)c2c(=O)n(C[C@@H](O)CO)cnc21 [TAK-733] + Cc1nc(Nc2ncc(C(=O)Nc3c(C)cccc3Cl)s2)cc(N2CCN(CCO)CC2)n1 have AUC of dose-response viability curve strictly under 2?
yes

Does COc1cc2nccc(Oc3ccc(NC(=O)Nc4cc(C)on4)c(Cl)c3)c2cc1OC [Tivozanib (AV-951)] + Cc1nc(Nc2ncc(C(=O)Nc3c(C)cccc3Cl)s2)cc(N2CCN(CCO)CC2)n1 have AUC of dose-response viability curve strictly under 2?
no

Does CCOc1cc2ncc(C#N)c(Nc3ccc(OCc4ccccn4)c(Cl)c3)c2cc1NC(=O)/C=C/CN(C)C [Neratinib (HKI-272)] + Cc1nc(Nc2ncc(C(=O)Nc3c(C)cccc3Cl)s2)cc(N2CCN(CCO)CC2)n1 have AUC of dose-response viability curve strictly under 2?
yes

Does Oc1cccc(-c2nc(N3CCOCC3)c3oc4ncccc4c3n2)c1 [PI-103] + Cc1nc(Nc2ncc(C(=O)Nc3c(C)cccc3Cl)s2)cc(N2CCN(CCO)CC2)n1 have AUC of dose-response viability curve strictly under 2?
yes

Does COCCOc1ccc2c(c1)ncn2-c1ccc2cccc(N3CCC(N)CC3)c2n1 + Cc1nc(Nc2ncc(C(=O)Nc3c(C)cccc3Cl)s2)cc(N2CCN(CCO)CC2)n1 have AUC of dose-response viability curve strictly under 2?
no

Does Cc1ccc(C(=O)Nc2cccc(C(F)(F)F)c2)cc1Nc1nc(-c2cccnc2)nc2c1cnn2C [NVP-BHG712] + Cc1nc(Nc2ncc(C(=O)Nc3c(C)cccc3Cl)s2)cc(N2CCN(CCO)CC2)n1 have AUC of dose-response viability curve strictly under 2?
no

Does Cc1nc(Nc2ncc(C(=O)Nc3c(C)cccc3Cl)s2)cc(N2CCN(CCO)CC2)n1 + Cc1nc(Nc2ncc(C(=O)Nc3c(C)cccc3Cl)s2)cc(N2CCN(CCO)CC2)n1 have AUC of dose-response viability curve strictly under 2?
yes

Does CCN1CCN(Cc2ccc(-c3cc4c(N[C@H](C)c5ccccc5)ncnc4[nH]3)cc2)CC1 [AEE788 (NVP-AEE788)] + Cc1nc(Nc2ncc(C(=O)Nc3c(C)cccc3Cl)s2)cc(N2CCN(CCO)CC2)n1 have AUC of dose-response viability curve strictly under 2?
yes

Does COCC(=O)NC/C=C/c1ccc2ncnc(Nc3ccc(Oc4ccc(C)nc4)c(C)c3)c2c1 + Cc1nc(Nc2ncc(C(=O)Nc3c(C)cccc3Cl)s2)cc(N2CCN(CCO)CC2)n1 have AUC of dose-response viability curve strictly under 2?
no

Does Cc1nc(NC(=O)N2CCC[C@H]2C(N)=O)sc1-c1ccnc(C(C)(C)C(F)(F)F)c1 [BYL719] + Cc1nc(Nc2ncc(C(=O)Nc3c(C)cccc3Cl)s2)cc(N2CCN(CCO)CC2)n1 have AUC of dose-response viability curve strictly under 2?
no

Does O=c1sn(-c2cccc3ccccc23)c(=O)n1Cc1ccccc1 [Tideglusib] + Cc1nc(Nc2ncc(C(=O)Nc3c(C)cccc3Cl)s2)cc(N2CCN(CCO)CC2)n1 have AUC of dose-response viability curve strictly under 2?
no

Does Cc1cc(C(=O)NOCCO)c(Nc2ccc(I)cc2F)n(C)c1=O [AZD8330] + Cc1nc(Nc2ncc(C(=O)Nc3c(C)cccc3Cl)s2)cc(N2CCN(CCO)CC2)n1 have AUC of dose-response viability curve strictly under 2?
yes

Does Cc1cc(C)c(/C=C2\C(=O)Nc3ccccc32)[nH]1 [Semaxanib (SU5416)] + Cc1nc(Nc2ncc(C(=O)Nc3c(C)cccc3Cl)s2)cc(N2CCN(CCO)CC2)n1 have AUC of dose-response viability curve strictly under 2?
no

Does NC(=O)Nc1sc(-c2ccc(F)cc2)cc1C(N)=O [TPCA-1] + Cc1nc(Nc2ncc(C(=O)Nc3c(C)cccc3Cl)s2)cc(N2CCN(CCO)CC2)n1 have AUC of dose-response viability curve strictly under 2?
yes
